src = patent US20160202245A1

Target: T1, non-cleaved SNAP-25206 (UniProt P60880 1-206)
T1 construct: range 1-206
Assay: ELISA and Western blots
test_readout: binding result

mouse monoclonal antibody 5-10-5 (antibody, V domains shown) VH: DVQLQESGPGLVKPSQSLSLTCTVTGFSITSDYAWNWIRQFPGNKLEWMGYISYKYGTRYNPSLKGRISITRDTSKNQFFLQLNSLTTEDTAIYYCARRGTDGYGFAYWGQGTLVTVSA VL: DIVLTQSPASLGVSLGQRATISCRASESVSSSGYSYIHWYQQRPGQPPKLLIFLASNLESGVPARFSGSGSGTDFTLNIHPVEEEDAATYYCQHSRELPLTFGAGTKLELK
no binding
mouse monoclonal antibody 18-3-3 (antibody, V domains shown) VH: EVKLVESGGGLVKPGGSLKLSCAASGFTFRSYAVSWVRQTPEKRLEWVASISTNGSTYYPDSMKGRFTISRDTARNILYLEMNSLRSEDTAMYYCARLRGFDYWGQGTPLTVSS VL: DVLMTQTPLSLPVSLGDQASISCRSSQSIVHSNGNTYLEWYLQKPGQSPKLLIYKVSKRFSGVPDRFSGSGSGTDFTLKITRVEAEDLGVYYCFQGSHVPYTFGGGTKLEIK
no binding
mouse monoclonal antibody 6-3-8 (antibody, V domains shown) VH: EVKLVEFGGGLVEPRGSLKLSCAASGFTFSTYAMSWVRQTPEKRLEWVASIASNGSTYYPDSVRGRFTISRDNARNILYLQMSSLRSEDTAMYYCSRLRGFDYWGQGSTLTVSS VL: DVLMTQIPLSLPVSLGDQASISCRSSQSIVHSNGNTYLEWYLQKPGQSPSLLIYKVFKRLSGVPDRFSGSGSGTEFTLKINRVEAEDLGVYYCFQGSHVPYTFGGGTKLEIK
no binding
